assay: soluble on expression in E. coli; label from the status in PepcDB or PDB records
endpoint: soluble on expression in E. coli

MAHHHHHHMEAGARFPAAATPPASAGAAAVQGDAESEPDDERWSLSDGEPEAIPAKNGEPSDADVDAAMAAKGEAAELHGEGKQEEAIAKMGEALAYNPGNAMYWGMRALYHLEFNKPRAALHDANKALELNPQNVRALRVRGTVNRHLGHWEDSLKDLSAAQAIDYDDKTNETLKYVQSRATQRHKRQLARHHAEEEAAARRQEELRRQRQREAEEAAAAAEAQAAPGSMPGGLPRGFPGGMPGGMPGGMPGGMPPGMESVLQDPEIMVAMQDPEVAPKLAQMMQNPMAAMSMMNDPKVGPVMQKIMAKMMGGGGMPGGMGGMGGMGGFQGAGGMPSHRGAADGASGSTRRDDLD    not soluble
MAAETKVQVSDPEAEFLNSKQETGYEWELFKENVRPLKRGRNVGILNHALKSHSDHQLRKNLIEKRRNLIEAIDEYEGDDPLSPWIECIKWVQEAFPPGGECSGLLVIYEQCVRKFWHSERYKDDLRYLKVWLEYAEHCADAEVIYKFLEVNEIGKTHAVYYIAYALHIEFKNKVKTANEIFNLGISRDAKPVEKLNDAYKKFMVRTMRRSNTADEEPKENNDLPSRSFGTLLSRGDNNARRQALGSSNPQAKKLKPNQSSKTPFAIYADAVSDTTSGNQPESDKSRPEFGSWLMLGGRAERNKENNSLPRKWASFKVPQKPIVRTVAAASASTFEVFVDEEECTEEEEEKKKNDETISSSSNVLPLNGGREIKKETELLRQNPLRHFPPNSFLR    not soluble
MGSDKIHHHHHHMRILLVGHYPPHKGGVARHVKQLKECLEKRHEVYVLTYGTVAVEEENVYSVKVPNIFGIRGTSFALLASKKIVKLHEKYNFDLVHAHYVGTTSFAGVLAKRKTGVPLVITAHGSDLEFMSRLPLGGYFVKTSIMEADYVIAVSHYLAKKALELGASRISVIPNWTELSGESERKYILFLGRVASYKGIEDFIELAKRFPGEEFVVAGEGPLLKKLRAKSPPNVKFLGYVPAEDVLKKAKVLVLPSKREGFGLVVIEANSFKVPVLGRNVGGIRELIRFSKNGYLFEDIEDAITYLKTLLVPKTNVKLGSIGKRISKGHSQEKMCERVEEIYREVIS    not soluble
MSNNEIVFVTGNANKLKEVQSILTQEVDNNNKTIHLINEALDLEELQDTDLNAIALAKGKQAVAALGKGKPVFVEDTALRFDEFNGLPGAYIKWFLKSMGLEKIVKMLEPFENKNAEAVTTICFADSRGEYHFFQGITRGKIVPSRGPTTFGWDSIFEPFDSHGLTYAEMSKDAKNAISHRGKAFAQFKEYLYQNDF    not soluble
MSLRVLVMVNDFPNKDNSYTANIFVKEQVKALSEFVEEINVIVPIPRGIELYRKTSYRDYAIGENVHVHFVKYINPLFPIAYSKLRREWIWLEHRALTNFIKKKDIKFDIIHAHYTWPSGAVGVKLKEEYKVPLVITEHTSQTFNRYITTRDPLAREIWQKADIIVRVRKGDIDLFSRVGITPSKIRYIPNGFDGNKFYPIPQEIARRKLNLVEYEKIIINVANMYSRVKGHEYLLRAFSKVAENTSDAFLILVGSGKLLSHLKKLADNLYLGHRVLFAGSKPHDEIPLWMNAADLFVLPSLRESFGVVQIEAMACGVPVVATRNGGSEEIIISEDYGLLCEPANPKELAEKILIALEKEWDREKIRKYAEQFTWENIAKKTLEVYRGVLKEGHHHHHH    soluble
MLVVPARLHRWPPEVQDLFGREGPLVLEIGFGDGRFTAELARSRPDWLVLGAEVSAASVLRALRRMRREGLANVRLYHGQGPFALRNLVLPGTLDQVIVNFPDPWPKKRHQERRLLREAFFRRLSTRLKPGGSLLLTTDHEEYFRFALEEAERTGLYRVEVRPPPEAHLRTKYALKWKEAGRAFFHAAFIKLREDPAPWPPLRRYDVAHALLSGELPQDLALEKTPVRLKEGVAVFLEVARGKEGFYVLTHVEEEDLTQDLLLEVRKSARGVYAGVSRFGSPLITEAVKGAVRALVDRLEAHGLEVVQDHT    soluble
MGSDKIHHHHHHMPNQVSKVNDLKHFFLHLIESGKLSHAYLFLGEDPREIHNLIAAISSRILREKTGDDVFENANLIEVKIPEGKKTLSVDQMRTVRDIFAEKSEHPQIAVIDDADKMTDSAANSILKFIEEPYDRQYIFLQARNRNRVLPTILSRVQLINIPKQKKSEISEQLVDKGIQEDEAIFISRISKSISQADDLLLDGFAINLKRSITEWLDEIFNRQEKSFAFVQSDLLNFVDTNEHQNIFNLALSSELSMRLEKAPNSVLADILDRWLVIYQRSRFTVSWQTMLESFTLEALRMVNGTEKFSNK    not soluble
MGSDKIHHHHHHVPNEKLSNRDRLLAVRDIFEQYSDEEQTLTLEELSTELSKRGLIEKLSRKSLKEDIAALAKSGFDIHAEETKNGLAIPYHLVSRPFEYHHLRLLVDAIASAKFISESETEVLVRNIHTLTSKRLAKTLTPVIHTVKKPKGVIPFSIDTIQKAIIEQDIISFQYQGKFNERTRKFELRRDGDYYLVTPAHLIVDNGNYYLIGRDERVEEIRTYRVDRIVNCSVFEPAQTPVEVEATYLSSMFNMYGGEQEQLTLKFHESVMPTVVDRFGTDIRCRRLEGDWFEVKVGALFSQGFMMWLIQFAEQAEILEPALCREAFKNKVLELAKVYQAGVPVSPQMNESV    not soluble
MSLAKTIAYLRVSTSQQDLKNQKFEILDYAQKNGLSIDDFVEVEISSRKSVEERKIDYLVSMLSQGDRVIVSELSRIGRSTVEVLNIINELASKKVFLIAIKQNLNINGSENLQAKVMVTMFSLFAELERDLISDRTKRALEARKAAGVKLGRPKGATGVSKLDGMEGQITELLRKQVSLSSIAKIFSVSRGTVYSFIATRGLTAEGHHHHHH    not soluble
